Origin of measurements: the supplement of paper PMC9170038

System: MS2 coat protein
EXPERIMENT_SUMMARY: apparent KD of MS2 coat protein, switch OFF state (with FMN for OFF switches, without FMN for ON switches); designed switch direction (-1 OFF switch, 1 ON switch): -1; higher = weaker reporter binding
APPLIED_CONDITIONS: FMN input: 0 or 200 uM; Eterna round: R93 (includes R88 designs)
MEASURED_PROPERTY: apparent KD of MS2 coat protein
Quote the value and follow it with the unit of measurement.

1. GGGUCACAUGAGGAUCACCCAUGUAAGGAUAUGCUAGGGAUGGAAACCAUUCCGCAACGCAGAAGGUACUAAAG [Janelle Amethyst 18 Mod 12 - Jieux - Exclusion 1]	0.105 µM

Retrieve apparent KD of MS2 coat protein measured for GGAAAACAUGAGGAUCACCCAUGUGAGGAUAUCGAUGUCCAAAAGAAAGUGCGGGACUCGAGAAGGCACUUGGA [salish99-ex1-36] and print it. 0.0458 µM

Retrieve apparent KD of MS2 coat protein measured for CAAAACAAAGGAUAUAAAACAGAGGAUAUACAUAAAUAAAAACAUGAGGAUCACCCAUGUAGAAGGCUGAAAAC [Meechl Ex2 R2 m3] and print it. 0.023 µM

====

Tested on: MS2 coat protein
EXPERIMENT_SUMMARY: apparent KD of MS2 coat protein; designed switch direction (-1 OFF switch, 1 ON switch): 1; higher = weaker reporter binding
APPLIED_CONDITIONS: input ligand: none
# if value of apparent KD of MS2 coat protein reaches 100 nM, tag Met; if it stays below, tag Not met

Previously resolved entries follow.
1) GACGUGAAGGCAGGAUAUGGGAAAGGAAGUGUACCAGAAGGGCCUGGAAAACAUGAGGAUCACCCAUGUGAACCCACGUCAGUU [PowerStrip SSNG 1.26] (Eterna round: R96, puzzle: Same State NG 1)	Not met
2) GGACGUCAUCUCACUGAUUAAACAUGAGGAUCACCCAUGUCACAGGAUAUGGAUCCGAUUAGGAUCCAGAAGGGUGUGACGUCC [Fiskers NG3ss - 43] (Eterna round: R96, puzzle: Same State NG 3)	Not met

hey, is apparent KD of MS2 coat protein for this one >= 100 nM? UAUCCAUAGAUAGGAUAUCAGUAUACAUGAGGAUCACCCAUGUUCUAUUUGGUUUUAAUUUAUUCUGAGAAGGAUCUUGAUGAA [SameState NG2 #1] (Eterna round: R96, puzzle: Same State NG 2) Not met

hey, is apparent KD of MS2 coat protein for this one >= 100 nM? AAAUAAAACACAGGAUAUGCAGCCAAUACGGCGGCAGAAGGGUGAGACAUGAGGAUCACCCAUGUACACGUCCCACAGACGUGC [Mabege] (Eterna round: R96, puzzle: Same State NG 1) Met

hey, is apparent KD of MS2 coat protein for this one >= 100 nM? AGUCCAGCCUGAGCUGGACAAAAGCAUGUACAUGAGGAUCACCCAUGUUCAUGUACAAGCUUUUUGCUCGUCUUAAA [JL zipper 52] (Eterna round: R96, puzzle: Sensor for hsa-mir-208a) Met

hey, is apparent KD of MS2 coat protein for this one >= 100 nM? AUUCGUUUGAUAGGAUAUCGCUAUACAUGAGGAUCACCCAUGUUUACCACGCUGGUUUUUCGUACCGAGAAGGAUUCUGAUGAU [JL JR sub007 mod 3] (Eterna round: R96, puzzle: Same State NG 2) Not met

hey, is apparent KD of MS2 coat protein for this one >= 100 nM? AGUCCAGCCUGAGCUGGACAAAAGCAUGUACAUGAGGAUCACCCAUGUCAUGUACAAGCUUUUUGCUCGUCUUAAAA [JL zipper 46] (Eterna round: R96, puzzle: Sensor for hsa-mir-208a) Met

hey, is apparent KD of MS2 coat protein for this one >= 100 nM? GGUACCAACACAGGAUAUGCUAUCCUUUGGGUAGCAGAAGGGUGAAACAUGAGGAUCACCCAUGUGGUGCCAGGGCGUGAGCCC [JL SSNG1 1.93] (Eterna round: R96, puzzle: Same State NG 1) Met

====

System: MS2 coat protein
EXPERIMENT_SUMMARY: apparent KD of MS2 coat protein; designed switch direction (-1 OFF switch, 1 ON switch): -1; higher = weaker reporter binding
APPLIED_CONDITIONS: Eterna round: R95; input ligand: microRNA oligo, concentration not stated
# if value of apparent KD of MS2 coat protein reaches 90 nM, tag satisfied; if it stays below, tag not satisfied

Previously resolved entries follow.
1) AUAAUAAAGGAGGAUAUCGUAUCGGAAACGAUACGAGAAGGUCUAACAUGAGGAUCACCCAUGUUCCUCAAUAA [Mat - Exclusion 6 - Eli Mod - D48] (puzzle: Exclusion 6)	not satisfied
2) GGAAGACAUGAGGAUCACCCAUGUAAGGAUAUCGAAGGUAUGAGAGGAAAGAGGUUAACGAGAAGGUACAGGUG [JR_Exclu1_Sub099] (puzzle: Exclusion 1)	not satisfied
3) ACGUGAUAUCUGUCGGUGGACAUGAGGAUCACCCAUGUGAGCUUUUUGCUCGUCUUGUAACCCGGUGACAGACCUUC [Encetia] (puzzle: Sensor v3, turn-off variant 1)	satisfied

For the next question, use this sequence.
hey, is apparent KD of MS2 coat protein for this one >= 90 nM? UGAUCUUUUGUUAGGAUAUGCUGUUUUUUUUUACAGCAGAAGGGACAUGAGGAUCACCCAUGUCUUGUCAUAAA [Magic-05] (puzzle: Brourd's mod of Exclusion 4) not satisfied

====

Tested on: K4 kissing-loop RNA reporter;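 note: bound reporter read as fluorescence of individual clusters on recovered sequencing chips by microscopy, with normalized cluster intensities fitted with a binding model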
EXPERIMENT_SUMMARY: apparent KD of K4 kissing-loop reporter; higher = weaker reporter binding
APPLIED_CONDITIONS: Eterna round: R107; input ligand: tryptophan 2.4 mM
# if value of apparent KD of K4 kissing-loop reporter reaches 200 nM, tag True; if it stays below, tag False

Previously resolved entries follow.
1. GGAUUGCCAGUGAUGUUGGCAUAAACUGAAGGAGCGCGUGAAAACGCAGGUAGGUCGCAGAACCUUGCCAACUGAUCGAAAGAUC [Ex Arginine A K4 29]	False
2. UGUCAUUGGUCGGCCGCCACUUCAUAGAGAGUGAUGUUCUUUAAGACGGAUCGAAAGAUCUGUCGAAGGACCGGGACCGAUGACU [FiskerMod 10 - Jieux - Same State - Tryptophan B]	True
3. GCCGUACGCAUGGAUACCAGCUUGUCCGAGUGAUGUUCGGGUCUGAAUGCCGGUAAUAAGAGCCCUUGGCAGCCAUGCGUACGGC	False
4. UAGGAGUGAUGUUCCAUAUCUUGAGCCGAAGGAGCGGCAUUAUAGCCAGGUAGGUCGCGGCAGAAGGUACCAGUGAUGUUGGAAA [Same State Arginine A GF5]	False

hey, is apparent KD of K4 kissing-loop reporter for this one >= 200 nM? UGCCGCAAGGCGAGCGCUCCCACUCCGGAAGGAGCGCCCGUAAGGGCAGGUAGGUCGCCGGAGUGAUGUUCCGGUGGAGGGCUCG [#2 Exclusion - Arginine A Attempt #24 (Inspired by Omei)] True

hey, is apparent KD of K4 kissing-loop reporter for this one >= 200 nM? UGAUAGGACAGAAGGAGCGGUAGUGAUGUUACCAAAAGGUUAAGGUGUCAAAAGACACCCUGCCAGGUAGGUCGCUGUCCUAUCU False

====

Test system: MS2 coat protein
EXPERIMENT_SUMMARY: apparent KD of MS2 coat protein, switch OFF state (with FMN for OFF switches, without FMN for ON switches); designed switch direction (-1 OFF switch, 1 ON switch): -1; higher = weaker reporter binding
APPLIED_CONDITIONS: FMN input: 0 or 200 uM; Eterna round: R93 (includes R88 designs)
MEASURED_PROPERTY: apparent KD of MS2 coat protein (nM)
# number only, unit nM dropped from output

Check out these entries, answers already filled in.
1. AAAAAGUGAGGAUAUACAUGAGGAUCACCCAUGUGAAAGUCGAAAAAAAAGACAAAAAGUAGAAGGCACAAAAA [Fiskers Exclusion 3 D2]	30.3
2. AAAUGUUGAGGAUAUACAUGAGGAUCACCCAUGUGUAAAAAUAAAUACACAAAAGAAAGUAGAAGGCAACAAAA [Ex 3 May 11]	79.7

Retrieve apparent KD of MS2 coat protein measured for AAAAAGCGAGGAUAUACAUGAGGAUCACCCAUGUAAAAAAAAAAAAAGGGAAAAAAAAGUAGAAGGCGCAAAAA [Sekhemraneferkhau Wepwawetemsaf] and print it. 48.7

====

Tested on: MS2 coat protein
EXPERIMENT_SUMMARY: apparent KD of MS2 coat protein; designed switch direction (-1 OFF switch, 1 ON switch): -1; higher = weaker reporter binding
APPLIED_CONDITIONS: input ligand: FMN 200 uM
# if value of apparent KD of MS2 coat protein reaches 100 nM, tag rule met; if it stays below, tag rule not met

Previously resolved entries follow.
1. AAGUAGCAUGCAGGAUAUGGUAAUCGAACGUUACCAGAAGGGCAUGAGGAUCACCCAUGUUCUCAUUUGUAAGAACAGAUGUCU [Ex NG1 #7] (Eterna round: R96, puzzle: Exclusion NG 1)	rule met
2. CUGUACUGAGGAUAUACAUGAGGAUCACCCAUGUGUUCCAGCUAGGAAACUAGCAAAAGUAGAAGGCAGUACAG [Mat - Exclusion 3 - Eli Mod - D65] (Eterna round: R97, puzzle: Exclusion 3)	rule met
3. CGCUGGACAGGAUAUGUUCUUGGGCACUUGAGGAUCACCCAAGUCAUCAAGACAACAGGCACAGAAGGGUUUAUGG [salish99_ex5_r4_023] (Eterna round: R97, puzzle: Exclusion 5)	rule not met
4. ACAAGCUUAAUCUGUAUGAACAUGAGGAUCACCCAUGUAUAAGGGAAUUCUUUUGGGUUUUUUAUUGCUCGUCUUAU [JR_STOV1_Sub021] (Eterna round: R97, puzzle: Sensor, turn-off variant 1)	rule met
5. CAACAUGAGGAUCACCCAUGUGGCCCUACGUGCUGGCUCGGGCAGGAUAUUAACCAAUGAGUAGUUAAGAAGGGCUCGCAAGUA [Eternabot solution 14] (Eterna round: R96, puzzle: Exclusion NG 3)	rule met

hey, is apparent KD of MS2 coat protein for this one >= 100 nM? UGAUCUAGCGGAGGAUAUACAUGAGGAUCACCCAUGUAUAGUCCAUGUGGUGACACGUGGAACAUGUAGAAGGCCGCUAGAUCU [JL ENG2 3.83] (Eterna round: R96, puzzle: Exclusion NG 2) rule met

hey, is apparent KD of MS2 coat protein for this one >= 100 nM? GUCGAACAUGAGGAUCACCCAUGUGAGGAUAUGCGAAUUUCAUCAAAAGAUGAAAUUUGCAGAAGGCACACGAC [Omei Ex1 A15] (Eterna round: R97, puzzle: Exclusion 1) rule not met

hey, is apparent KD of MS2 coat protein for this one >= 100 nM? ACAUGAGGAUCACCCAUGUAAACAUGAUGGCUGAUGUAGAGCUAGGAUAUGAGUGAAUAUCUAUCUCAGAAGGAGCUUGACUGG [Deportation 46 - Jieux - Exclusion NG 3] (Eterna round: R96, puzzle: Exclusion NG 3) rule not met

hey, is apparent KD of MS2 coat protein for this one >= 100 nM? UGUAACCGAGGAUAUACAUGAGGAUCACCCAUGUAAUGUAGUAUAGUGUAUGUAAGGUGUAGAAGGUGGGAUGU (Eterna round: R97, puzzle: Exclusion 3) rule not met

hey, is apparent KD of MS2 coat protein for this one >= 100 nM? AGUCGUAGACAGGAUAUGCGGCUAAUAAAUAAAGCAGAAGGGUCUACUUGAGGAUCACCCAAGUGGGCGGUCUG [jl-ex6-4.22 ViennaUCT mod] (Eterna round: R97, puzzle: Exclusion 6) rule not met
